substrate: O=C(CO)[C@H](O)[C@H](O)COP(=O)(O)O; test: coupled-enzyme spectrophotometric assay of RPE activity; type: biochemical, Escherichia coli; details: Co2+ enzyme
Reported Km is given for each of the following proteins.
readout.type: Km (µM)

protein="ALSE (D-allulose 6-phosphate 3-epimerase) (Escherichia coli K-12; DEL197-197) (protein) MKISPSLMCMDLLKFKEQIEFIDSHADYFHIDIMDGHFVPNLTLSPFFVSQVKKLATKPLDCHLMVTRPQDYIAQLARAGADFITLHPETINGQAFRLIDEIRRHDMKVGLILNPETPVEAMKYYIHKADKITVMTVDPGFAGQPFIPEMLDKLAELKAWREREGLEYEIEVDGSCNQATYEKLMAAGADVFIVGTGLFNHAENIDEAWRIMTAQILAAKSEVQPHAKTA" recorded_result=2800
protein="ALSE (D-allulose 6-phosphate 3-epimerase) (Escherichia coli K-12; DEL198-198) (protein) MKISPSLMCMDLLKFKEQIEFIDSHADYFHIDIMDGHFVPNLTLSPFFVSQVKKLATKPLDCHLMVTRPQDYIAQLARAGADFITLHPETINGQAFRLIDEIRRHDMKVGLILNPETPVEAMKYYIHKADKITVMTVDPGFAGQPFIPEMLDKLAELKAWREREGLEYEIEVDGSCNQATYEKLMAAGADVFIVGTSLFNHAENIDEAWRIMTAQILAAKSEVQPHAKTA" recorded_result=5100
protein="ALSE (D-allulose 6-phosphate 3-epimerase) (Escherichia coli K-12) (protein) MKISPSLMCMDLLKFKEQIEFIDSHADYFHIDIMDGHFVPNLTLSPFFVSQVKKLATKPLDCHLMVTRPQDYIAQLARAGADFITLHPETINGQAFRLIDEIRRHDMKVGLILNPETPVEAMKYYIHKADKITVMTVDPGFAGQPFIPEMLDKLAELKAWREREGLEYEIEVDGSCNQATYEKLMAAGADVFIVGTSGLFNHAENIDEAWRIMTAQILAAKSEVQPHAKTA" recorded_result=3000
